# assay: E. coli growth modulation, two-sided OD650, primary screen, E. coli filamentation project, strain DRC41, 24 h (AID 1093);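 also: MC1000 strain lacking acrAB efflux and sulA so SOS filamentation is blocked; test concentration not given here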
# test.parameters: OD650, 24 h, higher = more signal, called active from +8 up or from −8 down
Use 0.6 as the dividing line for z-score, with the line itself on the criterion met side and lower values as criterion not met.

compound: CN(C)C(=O)[C@@]1(Cc2ccccc2)COC(c2ccc(OCCCO)cc2)=N1
category: criterion met

compound: [N-]=[N+]=Nc1ccccc1C[C@]1(C(=O)NCc2ccccc2)COC(c2ccc(OCCCO)cc2)=N1
category: criterion met

compound: CC(C)(C)OC(=O)CC[C@]12N=C(c3ccc(OCCCO)cc3)O[C@H]1c1ccccc1N(Cc1ccccc1)C2=O
category: criterion met

compound: CC(C)OC(=O)CC(=O)CC(O)c1ccc([N+](=O)[O-])cc1 (stereo not given)
category: criterion not met

compound: C=C(C(=O)CC[C@@H](OC(=O)c1ccccc1-c1ccccc1C(=O)O)c1ccccc1OCCO)C(C)C
category: criterion not met

Is it the case that CCOC(=O)C1=CC[C@@H](c2ccccc2)N(S(=O)(=O)c2ccc(C)cc2)[C@H]1C=Cc1ccccc1 has z-score reaching or exceeding 0.6?
criterion not met

Check if z-score >= 0.6 (inclusive). Item: COCCOC(=O)N1C(=O)[C@@]2(c3cc(C#Cc4ccc(OC)cc4)ccc31)[C@H](c1ccc(OCCO)cc1)N1[C@H](c3ccccc3)[C@H](c3ccccc3)OC(=O)[C@H]1[C@@H]2C(=O)Nc1nc2ccccc2s1
criterion met

Textbook exercise: given the entry Cc1ccc(S[C@]2(C(=O)NC(C)C)CC(=O)N(Cc3ccccc3Cl)[C@@H]2c2ccc(CO)cc2)cc1 , state whether its z-score is greater than or equal to 0.6.
criterion not met

Hello, I need to know if C=C(COC)/C(=C/C[C@H](OC(C)=O)c1cccc(OCCO)c1)c1cnc2ccccc2c1 has measured z-score not below 0.6. Thanks!
criterion not met

Determine whether this compound has z-score no lower than 0.6: CCOC(=O)C1=CC[C@@H](c2ccccc2)N(S(=O)(=O)c2ccc(C)cc2)[C@H]1c1cccc(OC)c1
criterion not met

Evaluate COC(=O)[C@@]1(Cc2ccc(F)cc2)[C@H]2c3cc(C(=O)N(C)C)n(Cc4ccc(O)c(OC)c4)c3C[C@H]2CN1C(=O)c1ccccc1 : z-score at minimum 0.6?
criterion met

src = PubChem BioAssay
